Origin of the recorded values: paper PMC7413516

# protocol.text: Pharmacokinetic study in mice, plasma and brain structures, LC/MS/MS
# Assay type: in vivo, Swiss albino mice
# reported.conditions: Swiss albino, mouse, hippocampus, ip, 0.625 mg/kg, 0.625 mg/kg i.p., 30 min, read-out: Concentration, hippocampus (individual animals)
measure.name: concentration at 30 min (ng/mL)
# value in ng/mL; strip the unit string

Which concentration at 30 min value is on record for Cn1c(=O)c2c(nc3n(CCCCN4CCN(c5ccccc5F)CC4)ccn23)n(C)c1=O ? 125

----------
# protocol.text: Pharmacokinetic study in mice, plasma and brain structures, LC/MS/MS
# Type: in vivo, Swiss albino mice
# reported.conditions: Swiss albino, mouse, frontal cortex, ip, 0.625 mg/kg, 0.625 mg/kg i.p., 30 min, read-out: Concentration, frontal cortex (individual animals)
measure.name: concentration at 30 min
A complete answer gives the number followed by the unit.

# lookup: concentration at 30 min of Cn1c(=O)c2c(nc3n(CCCCN4CCN(c5ccccc5F)CC4)ccn23)n(C)c1=O [AZ-853] 165 ng/mL

----------
# protocol.text: Pharmacokinetic study in mice, plasma and brain structures, LC/MS/MS
# Assay type: in vivo, Swiss albino mice
# reported.conditions: Swiss albino, mouse, striatum, ip, 1.25 mg/kg, 1.25 mg/kg i.p., read-out: tmax, striatum (converted)
measure.name: Tmax

For the compound shown here, Cn1c(=O)c2c(nc3n(CCCCN4CCN(c5cccc(C(F)(F)F)c5)CC4)ccn23)n(C)c1=O , give the reported Tmax. 15 min

----------
# protocol.text: Pharmacokinetic study in mice, plasma and brain structures, LC/MS/MS
# Format: in vivo, Swiss albino mice
# reported.conditions: Swiss albino, mouse, hippocampus, ip, 1.25 mg/kg, 1.25 mg/kg i.p., read-out: tmax, hippocampus (converted)
measure.name: Tmax (min)
Express it in min; write the number only.

Entry under review: Cn1c(=O)c2c(nc3n(CCCCN4CCN(c5cccc(C(F)(F)F)c5)CC4)ccn23)n(C)c1=O [AZ-861] . Reported Tmax? 15

----------
# protocol.text: Pharmacokinetic study in mice, plasma and brain structures, LC/MS/MS
# Assay type: in vivo, Swiss albino mice
# reported.conditions: Swiss albino, mouse, frontal cortex, ip, 0.625 mg/kg i.p., read-out: AUC0→t, frontal cortex (converted)
measure.name: AUC(0-t) (ng·h/mL)
Express your answer in ng·h/mL, writing the number without its unit.

# AUC(0-t) lookup, item Cn1c(=O)c2c(nc3n(CCCCN4CCN(c5ccccc5F)CC4)ccn23)n(C)c1=O 321

----------
# protocol.text: Pharmacokinetic study in mice, plasma and brain structures, LC/MS/MS
# Format: in vivo, Swiss albino mice
# reported.conditions: Swiss albino, mouse, striatum, ip, 0.625 mg/kg, 0.625 mg/kg i.p., 120 min, read-out: Concentration, striatum (individual animals)
measure.name: concentration at 120 min

Request the reported concentration at 120 min associated with Cn1c(=O)c2c(nc3n(CCCCN4CCN(c5ccccc5F)CC4)ccn23)n(C)c1=O 48.7 ng/mL

----------
# protocol.text: Pharmacokinetic study in mice, plasma and brain structures, LC/MS/MS
# Assay type: in vivo, Swiss albino mice
# reported.conditions: Swiss albino, mouse, striatum, ip, 0.625 mg/kg, 0.625 mg/kg i.p., 60 min, read-out: Concentration, striatum (Mean)
measure.name: concentration at 60 min
Answer format: number, then unit.

What value of measured concentration at 60 min is listed for Cn1c(=O)c2c(nc3n(CCCCN4CCN(c5ccccc5F)CC4)ccn23)n(C)c1=O [AZ-853] ? 65.5 ng/mL

----------
# protocol.text: Pharmacokinetic study in mice, plasma and brain structures, LC/MS/MS
# Type: in vivo, Swiss albino mice
# reported.conditions: Swiss albino, mouse, plasma, ip, 0.625 mg/kg, 0.625 mg/kg i.p., 30 min, read-out: Concentration, plasma (individual animals)
measure.name: concentration at 30 min
Numeric answer plus unit only.

Endpoint output: concentration at 30 min of Cn1c(=O)c2c(nc3n(CCCCN4CCN(c5ccccc5F)CC4)ccn23)n(C)c1=O [AZ-853] . Value? 9.11 ng/mL

----------
# protocol.text: Pharmacokinetic study in mice, plasma and brain structures, LC/MS/MS
# Format: in vivo, Swiss albino mice
# reported.conditions: Swiss albino, mouse, plasma, ip, 1.25 mg/kg, 1.25 mg/kg i.p., 15 min, read-out: Concentration, plasma (Mean)
measure.name: concentration at 15 min (ng/mL)
Kindly answer with a numeric value in ng/mL, unit omitted.

What concentration at 15 min value was documented for this compound, Cn1c(=O)c2c(nc3n(CCCCN4CCN(c5cccc(C(F)(F)F)c5)CC4)ccn23)n(C)c1=O ? 36.3

----------
# protocol.text: Pharmacokinetic study in mice, plasma and brain structures, LC/MS/MS
# Assay type: in vivo, Swiss albino mice
# reported.conditions: Swiss albino, mouse, striatum, ip, 1.25 mg/kg, 1.25 mg/kg i.p., 60 min, read-out: Concentration, striatum (individual animals)
measure.name: concentration at 60 min (ng/mL)
Write down the numeric answer in ng/mL and omit the unit.

GET /values?readout=concentration at 60 min&item= Cn1c(=O)c2c(nc3n(CCCCN4CCN(c5cccc(C(F)(F)F)c5)CC4)ccn23)n(C)c1=O 61.6

----------
# protocol.text: Pharmacokinetic study in mice, plasma and brain structures, LC/MS/MS
# Assay type: in vivo, Swiss albino mice
# reported.conditions: Swiss albino, mouse, striatum, ip, 0.625 mg/kg i.p., ratio of AUC values, read-out: Brain structure-to-plasma concentration ratio, striatum (S/P)
measure.name: Kp
The answer should be a number; do not append a unit.

Any idea what Kp was measured for Cn1c(=O)c2c(nc3n(CCCCN4CCN(c5ccccc5F)CC4)ccn23)n(C)c1=O [AZ-853] ? 19.9

----------
# protocol.text: Pharmacokinetic study in mice, plasma and brain structures, LC/MS/MS
# Format: in vivo, Swiss albino mice
# reported.conditions: Swiss albino, mouse, frontal cortex, ip, 0.625 mg/kg, 0.625 mg/kg i.p., 120 min, read-out: Concentration, frontal cortex (Mean)
measure.name: concentration at 120 min (ng/mL)
I only need the number, in ng/mL, no unit after it.

Look up concentration at 120 min for this molecule: Cn1c(=O)c2c(nc3n(CCCCN4CCN(c5ccccc5F)CC4)ccn23)n(C)c1=O [AZ-853] 27.5

----------
# protocol.text: Pharmacokinetic study in mice, plasma and brain structures, LC/MS/MS
# Format: in vivo, Swiss albino mice
# reported.conditions: Swiss albino, mouse, frontal cortex, ip, 0.625 mg/kg i.p., ratio of AUC values, read-out: Brain structure-to-plasma concentration ratio, frontal cortex (FC/P)
measure.name: Kp
// response body must contain only the number

Dear colleague, I am looking for the recorded Kp of the following compound: Cn1c(=O)c2c(nc3n(CCCCN4CCN(c5ccccc5F)CC4)ccn23)n(C)c1=O [AZ-853] 18.1

----------
# protocol.text: Pharmacokinetic study in mice, plasma and brain structures, LC/MS/MS
# Type: in vivo, Swiss albino mice
# reported.conditions: Swiss albino, mouse, striatum, ip, 0.625 mg/kg, 0.625 mg/kg i.p., 240 min, read-out: Concentration, striatum (Mean)
measure.name: concentration at 240 min (ng/mL)
Quick note: give the figure in ng/mL, leave out the unit.

Any idea what concentration at 240 min was measured for Cn1c(=O)c2c(nc3n(CCCCN4CCN(c5ccccc5F)CC4)ccn23)n(C)c1=O ? 5.58

----------
# protocol.text: Pharmacokinetic study in mice, plasma and brain structures, LC/MS/MS
# Format: in vivo, Swiss albino mice
# reported.conditions: Swiss albino, mouse, frontal cortex, ip, 0.625 mg/kg, 0.625 mg/kg i.p., 60 min, read-out: Concentration, frontal cortex (individual animals)
measure.name: concentration at 60 min (ng/mL)
Just the number please, in ng/mL, no unit attached.

Please give the measured concentration at 60 min for this molecule: Cn1c(=O)c2c(nc3n(CCCCN4CCN(c5ccccc5F)CC4)ccn23)n(C)c1=O [AZ-853] 56.3

----------
# protocol.text: Pharmacokinetic study in mice, plasma and brain structures, LC/MS/MS
# Type: in vivo, Swiss albino mice
# reported.conditions: Swiss albino, mouse, hippocampus, ip, 0.625 mg/kg, 0.625 mg/kg i.p., 240 min, read-out: Concentration, hippocampus (Mean)
measure.name: concentration at 240 min (ng/mL)
Please reply with the bare figure in ng/mL and do not write the unit itself.

Which concentration at 240 min value is on record for Cn1c(=O)c2c(nc3n(CCCCN4CCN(c5ccccc5F)CC4)ccn23)n(C)c1=O ? 8.83

----------
# maps each entry to its pEC50
# study.target: human serotonin 5-HT1AR (Homo sapiens)
# Sequence (P08908 whole entry): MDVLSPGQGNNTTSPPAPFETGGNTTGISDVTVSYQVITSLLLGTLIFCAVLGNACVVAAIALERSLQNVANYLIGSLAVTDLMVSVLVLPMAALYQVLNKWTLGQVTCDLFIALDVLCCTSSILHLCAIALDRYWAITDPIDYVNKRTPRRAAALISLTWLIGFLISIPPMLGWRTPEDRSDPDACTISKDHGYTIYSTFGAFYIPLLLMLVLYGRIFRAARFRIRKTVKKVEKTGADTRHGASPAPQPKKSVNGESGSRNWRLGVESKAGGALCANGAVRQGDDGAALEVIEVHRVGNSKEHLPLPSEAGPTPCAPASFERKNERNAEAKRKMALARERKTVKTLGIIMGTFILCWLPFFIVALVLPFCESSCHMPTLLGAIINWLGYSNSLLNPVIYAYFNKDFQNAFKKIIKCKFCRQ
# protocol.text: cAMP inhibition (LANCE Ultra cAMP, forskolin-stimulated CHO-K1 cells)
# pEC50 is unitless: minus log10 of the molar concentration; print number only

Cn1c(=O)c2c(nc3n(CCCCN4CCN(c5ccccc5F)CC4)ccn23)n(C)c1=O | 7.80

Find pEC50 (human serotonin 5-HT1AR (Homo sapiens)) for the entry Cn1c(=O)c2c(nc3n(CCCCN4CCN(c5cccc(C(F)(F)F)c5)CC4)ccn23)n(C)c1=O 8.36
